B1: Caulobacter ParB omega fusion; a variant is named by its letters at X, in order, B8GW30 (parent)
chain: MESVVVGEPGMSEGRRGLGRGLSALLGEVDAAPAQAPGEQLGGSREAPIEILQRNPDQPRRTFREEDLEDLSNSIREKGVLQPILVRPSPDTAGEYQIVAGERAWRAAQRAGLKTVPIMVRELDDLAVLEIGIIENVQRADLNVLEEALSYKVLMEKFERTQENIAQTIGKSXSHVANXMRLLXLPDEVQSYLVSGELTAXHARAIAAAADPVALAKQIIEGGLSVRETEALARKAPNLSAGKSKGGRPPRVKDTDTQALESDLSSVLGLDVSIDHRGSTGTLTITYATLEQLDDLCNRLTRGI

- Variants of: B1
- Protocol Details: one-hybrid fitness for binding NBS DNA (the Noc-binding site; scaled: cognate 1, non-cognate 0); higher = stronger binding
- Measurement Parameters: with NBS DNA site
In all, about 81,000 sequences were measured (“one-hybrid fitness for binding NBS DNA”: median about -0.1, highest 2% from about 0.36 on). This is one part of a sample in which the highest values are shown more often than they occur.
Quantity Name: one-hybrid fitness for binding NBS DNA

{"Mutant Code": "QITH", "one-hybrid fitness for binding NBS DNA": "≤ 0.2"}

Respectfully, I request one-hybrid fitness for binding NBS DNA for each entry included below.
1. RSGP
2. QVTS
3. VRNY
4. TRTI
5. DTYG
6. MTEF
7. GPNL

≤ 0.2
0.257
≤ 0.2
≤ 0.2
≤ 0.2
≤ 0.2
≤ 0.2
